The measurements presented in this section are drawn from patent US7135462B2.

- tested.on: HCV NS3/4A protease complex (BMS strain) (UniProt P27958, C1454S/C1711G, species not given)
- Construct: for H77 and J4L6S; fused on or other part: Three-lysine solubilising tail at the C-terminus of NS4A
- experiment.description: Recombinant HCV NS3/4A protease complex FRET peptide assay
- Format: biochemical, Hepatitis C virus (HCV), genotype 1a
- assay.conditions: NS3/4A BMS strain; activity range class; read-out: IC50
pIC50: −log10 of the molar value.
The entries below come with measured pIC50 values attached.
endpoint.name: pIC50

* C=C[C@@H]1C[C@]1(NC(=O)[C@@H]1C[C@@H](Oc2nc(-c3ccccc3)nc3ccccc23)CN1C(=O)[C@@H](N)C(C)(C)C)C(=O)NS(=O)(=O)C1(CC2CC2)CC1 [Cmpd 602] | 6.00 to 7.00
* C=C[C@@H]1C[C@]1(NC(=O)[C@@H]1C[C@@H](Oc2nccc3c(OC(F)(F)F)cccc23)CN1C(=O)[C@@H](NC(=O)OC(C)(C)C)C(C)(C)C)C(=O)NS(=O)(=O)C1(CC)CC1 [Cpd 103] | > 7.00
* C=C[C@@H]1C[C@]1(NC(=O)[C@@H]1C[C@@H](Oc2nccc3cc(OC)ccc23)CN1C(=O)[C@@H](NC(=O)N1CCC1)C(C)(C)C)C(=O)NS(=O)(=O)C1(C)CC1 [Cmpd 220] | > 7.00
* C=C[C@@H]1C[C@]1(NC(=O)[C@@H]1C[C@@H](Oc2nc(-c3ccccc3)nc3ccccc23)CN1C(=O)[C@@H](N)C(C)(C)C)C(=O)NS(=O)(=O)C1(Cc2ccccc2)CC1 [Cmpd 603] | 5.00 to 6.00
* C=C[C@@H]1C[C@]1(NC(=O)[C@@H]1C[C@@H](Oc2nc(-c3ccccc3)nc3ccccc23)CN1C(=O)[C@@H](NC(C)=O)C(C)(C)C)C(=O)NS(=O)(=O)C1(CC2CC2)CC1 [Cmpd 604] | > 7.00

###

- System: HCV replicon in Huh7 cells
- experiment.description: microbe, parasite or virus in culture
- Format: cell-based, strain 1b
- assay.conditions: Hepatitis C virus, Huh-7, 96 h; Huh7 cells expressing HCV replicon, 4 days; activity range class
endpoint.name: EC50

* C=C[C@@H]1C[C@]1(NC(=O)[C@@H]1C[C@@H](Oc2nccc3cc(OC)ccc23)CN1C(=O)[C@@H](NC(=O)NC1CCCC1)C(C)(C)C)C(=O)NS(=O)(=O)C1(C)CC1 | < 100 nM
* C=C[C@@H]1C[C@]1(NC(=O)[C@@H]1C[C@@H](Oc2nccc3c4c(ccc23)OCCO4)CN1C(=O)[C@@H](NC(=O)OC(C)(C)C)C(C)(C)C)C(=O)NS(=O)(=O)C1(CC)CC1 | < 100 nM
* C=C[C@@H]1C[C@]1(NC(=O)[C@@H]1C[C@@H](Oc2nccc3cc(OC)ccc23)CN1C(=O)[C@@H](NC(=O)OC(C)(C)C)C(C)(C)C)C(=O)NS(=O)(=O)C1(Cl)CC1 | < 100 nM
* C=C[C@@H]1C[C@]1(NC(=O)[C@@H]1C[C@@H](Oc2nc(-c3ccccc3)nc3ccccc23)CN1C(=O)[C@@H](NC(=O)c1cnccn1)C(C)(C)C)C(=O)NS(=O)(=O)C1(CC2CC2)CC1 | 1000 to 10000 nM
* CCCC1(S(=O)(=O)NC(=O)[C@@]2(NC(=O)[C@@H]3C[C@@H](Oc4cc(-c5ccccc5)nc5c(C)noc45)CN3C(=O)[C@@H](NC(=O)OC(C)(C)C)C(C)(C)C)C[C@H]2CC)CC1 | 100 to 1000 nM
* C=C[C@@H]1C[C@]1(NC(=O)[C@@H]1C[C@@H](Oc2nccc3cc(OC)ccc23)CN1C(=O)[C@@H](NC(=O)NC(C)(C)CC)C(C)(C)C)C(=O)NS(=O)(=O)C1(C)CC1 | < 100 nM
* C=C[C@@H]1C[C@]1(NC(=O)[C@@H]1C[C@@H](Oc2nccc3ccccc23)CN1C(=O)[C@@H](NC(=O)OC(C)(C)C)C(C)(C)C)C(=O)NS(=O)(=O)C1(Cc2ccccc2)CC1 | 100 to 1000 nM
* C=C[C@@H]1C[C@]1(NC(=O)[C@@H]1C[C@@H](Oc2ncc(Cl)c3cc(OC)ccc23)CN1C(=O)[C@@H](NC(=O)OC(C)(C)C)C(C)(C)C)C(=O)NS(=O)(=O)C1(CC)CC1 | < 100 nM
